Tested on: α-HL-Pol6 nanopore-polymerase conjugate
Type: biochemical
Recorded metric: blocking current level

### Prompt # input substance: (dA6P)2-dT5-(BHEB)-dT14-C3: two dA6P via doubler-linker on tag SEQ ID NO: 109 (DNA ttttttttttttttttttt; two dA6P via doubler linker; BHEB; C3; (5)..(6) bis-hydroxyethylbenzene residue between nucleotide residues 5 and 6; (19)..(19) T-propanol) ; wanted: its blocking current level
### Response 0.88+/−0.03

### Prompt # input substance: (dG6P)2-dT6-(Tmp)6-dT8-C3: two dG6P via doubler-linker on tag SEQ ID NO: 107 (DNA TTTTTTTTTTTTTT; two dG6P via doubler linker; Tmp; C3; (6)..(7) 6 thymidine methylphosphonate residues between nucleotide residues 6 and 7; (14)..(14) T-propanol) ; wanted: its blocking current level
### Response 0.38+/−0.08

### Prompt # input substance: (dC6P)2-dT20-C3: two dC6P via doubler-linker on tag SEQ ID NO: 105 (DNA tttttttttttttttttttt; two dC6P via doubler linker; C3; (20)..(20) T-propanol) ; wanted: its blocking current level
### Response 0.76+/−0.04

### Prompt # input substance: (dT6P)2-dT4-(N3CET)3-dT13-C3: two dT6P via doubler-linker on tag SEQ ID NO: 106 (DNA TTTTTTTTTTTTTTTTT; chemistry not fully specified) ; wanted: its blocking current level
### Response 0.62+/−0.05

Where do the numbers come from? From patent US20190241952A1.
